target-desc: human ether-à-go-go-related gene (hERG) potassium channel (human, UniProt Q12809)
Sequence (Q12809 whole entry, looked up): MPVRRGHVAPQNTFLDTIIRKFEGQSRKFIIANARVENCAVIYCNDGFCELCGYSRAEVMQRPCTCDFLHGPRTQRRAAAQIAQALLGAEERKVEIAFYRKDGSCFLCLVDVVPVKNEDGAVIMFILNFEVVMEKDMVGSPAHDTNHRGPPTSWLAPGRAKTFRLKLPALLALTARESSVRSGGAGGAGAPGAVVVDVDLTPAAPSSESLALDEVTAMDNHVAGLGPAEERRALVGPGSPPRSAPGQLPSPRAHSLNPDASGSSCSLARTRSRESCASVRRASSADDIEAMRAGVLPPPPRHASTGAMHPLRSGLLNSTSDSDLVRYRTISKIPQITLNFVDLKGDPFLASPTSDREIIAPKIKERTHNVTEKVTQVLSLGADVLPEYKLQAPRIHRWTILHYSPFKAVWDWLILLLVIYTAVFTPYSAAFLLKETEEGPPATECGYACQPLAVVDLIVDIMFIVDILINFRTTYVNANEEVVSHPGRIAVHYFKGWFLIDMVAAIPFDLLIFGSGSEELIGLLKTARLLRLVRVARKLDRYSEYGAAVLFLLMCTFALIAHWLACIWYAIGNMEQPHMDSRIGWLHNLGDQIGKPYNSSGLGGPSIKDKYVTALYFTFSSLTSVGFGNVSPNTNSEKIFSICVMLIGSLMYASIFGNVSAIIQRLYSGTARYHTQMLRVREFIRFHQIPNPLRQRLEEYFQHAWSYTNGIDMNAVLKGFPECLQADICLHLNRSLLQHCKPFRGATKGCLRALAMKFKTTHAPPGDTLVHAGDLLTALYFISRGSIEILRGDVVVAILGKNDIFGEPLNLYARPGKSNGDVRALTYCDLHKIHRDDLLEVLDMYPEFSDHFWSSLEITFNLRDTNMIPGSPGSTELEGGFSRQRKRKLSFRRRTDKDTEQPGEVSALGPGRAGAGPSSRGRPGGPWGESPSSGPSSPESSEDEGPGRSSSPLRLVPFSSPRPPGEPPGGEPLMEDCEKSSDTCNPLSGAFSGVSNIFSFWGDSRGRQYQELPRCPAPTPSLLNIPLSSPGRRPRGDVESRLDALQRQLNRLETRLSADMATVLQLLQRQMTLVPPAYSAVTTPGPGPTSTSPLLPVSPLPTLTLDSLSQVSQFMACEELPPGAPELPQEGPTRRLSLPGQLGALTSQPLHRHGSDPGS
test-details: primary screen, population patch clamp on CHO cells stably expressing hERG; higher = less effect of the substance
The campaign covered roughly 310,000 compounds. About 14,000 (4.5%) showed an effect of 50% or more. Effects have a minus sign here. This is one part of a sample in which strong results are shown more often than they occur.
Each entry below carries its reported hERG current change (%, negative = inhibition) at 10uM.
Kindly provide the numeric value in % only, without the unit symbol.

Known hERG current change (%, negative = inhibition) at 10uM results, listed for orientation:
Query hERG current change (%, negative = inhibition) at 10uM on human ether-à-go-go-related gene (hERG) potassium channel (human, UniProt Q12809) for COc1cc(-c2noc(C)c2/C=C/c2cccc([N+](=O)[O-])c2)cc(OC)c1OC
-2.59

Observed hERG current change (%, negative = inhibition) at 10uM on human ether-à-go-go-related gene (hERG) potassium channel (human, UniProt Q12809) for OC(CN1CCc2ccccc2C1)c1ccccc1 (stereo not drawn) , please.
-9.09

Entry O=Cc1cccc(Oc2ccc([N+](=O)[O-])cc2[N+](=O)[O-])c1 , system human ether-à-go-go-related gene (hERG) potassium channel (human, UniProt Q12809): what hERG current change (%, negative = inhibition) at 10uM was measured?
-55

GET /values?readout=hERG current change (%, negative = inhibition) at 10uM&system=human ether-à-go-go-related gene (hERG) potassium channel (human, UniProt Q12809)&item= Cl.OC(COC(c1ccc(Cl)cc1)c1ccc(Cl)cc1)CN1CCc2ccccc2C1 (stereo not drawn)
-61.6

Return hERG current change (%, negative = inhibition) at 10uM measured with human ether-à-go-go-related gene (hERG) potassium channel (human, UniProt Q12809) given this molecule: COc1ccc2c(c1)CCc1c(C(=O)N3CCCC3)noc1-2
-7.79

Others:
Report hERG current change (%, negative = inhibition) at 10uM for Nc1ccc(Oc2ccc([N+](=O)[O-])cc2[N+](=O)[O-])cc1 tested on human ether-à-go-go-related gene (hERG) potassium channel (human, UniProt Q12809).
-37.7

Record O=S(=O)(Cc1cccc(C(F)(F)F)c1)c1ncn[nH]1 : what is its hERG current change (%, negative = inhibition) at 10uM with human ether-à-go-go-related gene (hERG) potassium channel (human, UniProt Q12809)?
17.9

Write down the reported hERG current change (%, negative = inhibition) at 10uM of Cc1cc(=O)oc2cc(Oc3ccc([N+](=O)[O-])cc3C(F)(F)F)ccc12 , test system: human ether-à-go-go-related gene (hERG) potassium channel (human, UniProt Q12809).
-15

Missing value: hERG current change (%, negative = inhibition) at 10uM, human ether-à-go-go-related gene (hERG) potassium channel (human, UniProt Q12809), entry O=C(N/N=C/c1cccc(Oc2ccc([N+](=O)[O-])cc2[N+](=O)[O-])c1)c1cncc(Br)c1 . Fill in?
-32.1

* * *

target-desc: human ether-à-go-go-related gene (hERG) potassium channel (human)
test-details: primary screen, population patch clamp on CHO cells stably expressing hERG; higher = less effect of the substance
The whole screen tested about 310,000 compounds, of which about 14,000 (4.5%) showed an effect of 50% or more. The effect is printed as a negative number. The entries come from a sample that favours strong results as a whole.
yes (1) means recorded hERG current change (%, negative = inhibition) at 10uM is -50% or above; no (0) means it is below -50%.

Hello, I need to know if CCN(CC)S(=O)(=O)c1ccc(Cl)c(C(=O)NC2CCN(Cc3ccccc3)CC2)c1.Cl has measured hERG current change (%, negative = inhibition) at 10uM not below -50%. Thanks!
yes (1)

Decide: hERG current change (%, negative = inhibition) at 10uM of Cc1ccccc1NC(=O)CN1CCN(Cc2ccccc2)CC1 >= -50%?
yes (1)

Please indicate if the recorded hERG current change (%, negative = inhibition) at 10uM for Cl.c1ccc2c(c1)nc(N1CCCCC1)c1ccccc12 meets or exceeds -50%.
yes (1)

Answer whether hERG current change (%, negative = inhibition) at 10uM of O=C(CSc1nnc(CNC(=O)c2ccco2)o1)Nc1nc2ccccc2s1 is greater than or equal to -50%.
yes (1)

Exam item: decide whether the reported hERG current change (%, negative = inhibition) at 10uM for COc1ccccc1C(=O)Nc1ccnn1C1CCN(Cc2cn(C)c3ccccc23)CC1 is at least -50%.
no (0)

# check: hERG current change (%, negative = inhibition) at 10uM of Cc1ccc(NC(=O)C2CCN(C(=O)[C@@H]3Cc4ccccc4CN3)CC2)c(C)c1 is greater than or equal to -50%
yes (1)

Given COc1ccc2nc(C)cc(N/N=C/c3ccccc3)c2c1 , state whether its hERG current change (%, negative = inhibition) at 10uM is at least -50%.
yes (1)

* * *

target-desc: human ether-à-go-go-related gene (hERG) potassium channel (human)
test-details: primary screen, population patch clamp on CHO cells stably expressing hERG; higher = less effect of the substance
Screen size: about 310,000 compounds; about 14,000 (4.5%) showed an effect of 50% or more. Effects have a minus sign here. Only a selection was taken, and strong results are over-represented in it overall.
measurement-type: hERG current change (%, negative = inhibition) at 10uM (%)
Numbers only here, please. The scale is %.

Missing value: hERG current change (%, negative = inhibition) at 10uM, human ether-à-go-go-related gene (hERG) potassium channel (human), entry CCOc1ccc2oc(=O)cc(CN3CCN(Cc4ccccc4)CC3)c2c1 . Fill in?
-56.7

Further cases:
Under human ether-à-go-go-related gene (hERG) potassium channel (human): hERG current change (%, negative = inhibition) at 10uM value of CCOc1ccc(N2CC(C(=O)N3CCCCC3)CC2=O)cc1 (stereo not shown) ?
18.6

Query the reported hERG current change (%, negative = inhibition) at 10uM for human ether-à-go-go-related gene (hERG) potassium channel (human); item: COc1cnc(-c2ccccn2)nc1Oc1ccccc1
-72.8

Return hERG current change (%, negative = inhibition) at 10uM measured with human ether-à-go-go-related gene (hERG) potassium channel (human) given this molecule: CC(C)Oc1cccc(C(=O)C2CCCN(C(=O)c3ccoc3)C2)c1 (stereo not shown)
-14.7

Please provide the recorded hERG current change (%, negative = inhibition) at 10uM for c1cc2c(cc1-c1[nH]ncc1CN1C[C@H]3CC[C@H]1C3)OCO2 , tested on human ether-à-go-go-related gene (hERG) potassium channel (human).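 Further: peak tail current of the secondary pulse compared with the same well before compound.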
-3.58

Fill in the recorded hERG current change (%, negative = inhibition) at 10uM for this molecule, with human ether-à-go-go-related gene (hERG) potassium channel (human) as test system: Cc1ccc(NC(=O)CCN2CCc3ccccc3C2)cc1.Cl
-60.8

State its hERG current change (%, negative = inhibition) at 10uM on human ether-à-go-go-related gene (hERG) potassium channel (human): COc1ccc(CN2CCc3ccc(NC(=O)CCc4ccccc4OC)cc3C2)c(O)c1
-35.2

Record Oc1cccc(CCC2CCCCN2Cc2cn[nH]c2-c2ccc3c(c2)OCO3)c1 (stereo not shown) : what is its hERG current change (%, negative = inhibition) at 10uM with human ether-à-go-go-related gene (hERG) potassium channel (human)?
-66.2

Please provide the recorded hERG current change (%, negative = inhibition) at 10uM for CCCNC(=O)Cn1nc(C(F)(F)F)c2c1CCCC2 , tested on human ether-à-go-go-related gene (hERG) potassium channel (human).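 Further: peak tail current of the secondary pulse compared with the same well before compound.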
9.29

Requested read-out hERG current change (%, negative = inhibition) at 10uM, target or system human ether-à-go-go-related gene (hERG) potassium channel (human), entry CN(Cc1ccc(F)cc1)C(=O)c1ccc(NS(=O)(=O)c2ccc3[nH]c(=O)[nH]c3c2)cc1;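 further: peak tail current of the secondary pulse compared with the same well before compound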
12.1

* * *

target-desc: human ether-à-go-go-related gene (hERG) potassium channel (human, UniProt Q12809);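 further: peak tail current of the secondary pulse compared with the same well before compound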
test-details: primary screen, population patch clamp on CHO cells stably expressing hERG; higher = less effect of the substance
About 14,000 (4.5%) of roughly 310,000 compounds showed an effect of 50% or more. The effect is printed as a negative number. Shown is part of a subset that was picked to be rich in strong results.
Listed here are compounds together with their documented hERG current change (%, negative = inhibition) at 10uM.
Give the value in % but do not write % after it.

Consider the following illustrative entries.
Quick one: hERG current change (%, negative = inhibition) at 10uM for O=C(Nc1ccccc1N1CCCCC1)c1cccc(Cl)c1 ?
13.5

Query (compound): CC(C)(C)C(=O)Nc1ccccc1N1CCN(C(=O)c2ccc(Cl)cc2)CC1 ; field requested: hERG current change (%, negative = inhibition) at 10uM
-48.2

Can you share its hERG current change (%, negative = inhibition) at 10uM? I mean this compound: COc1cc(C(=O)NNC(=O)c2cc(S(=O)(=O)N(C)C)ccc2N2CCCC2)cc(OC)c1OC
15.1

For COc1ccccc1C(=O)Nc1ccccc1N1CCOCC1 , what is its reported hERG current change (%, negative = inhibition) at 10uM?
-6.98

Requested field: hERG current change (%, negative = inhibition) at 10uM. Item: COc1cccc(OC)c1C(=O)Nc1ccccc1N1CCCCC1
-17.4

Others:
Could you tell me which hERG current change (%, negative = inhibition) at 10uM is on file for Cc1cccc(OCC(O)Cn2c(NCc3cccnc3)nc3c2c(=O)[nH]c(=O)n3C)c1 (stereo not drawn) ?
-9.46

Which hERG current change (%, negative = inhibition) at 10uM is listed for COc1ccc(NC(=O)CN(C)C(=O)c2cc(S(=O)(=O)N(C)C)ccc2N2CCCC2)cc1 ?
-13.8

# get_value(readout='hERG current change (%, negative = inhibition) at 10uM', item= O=C(Nc1ccccc1N1CCN(C(=O)c2ccccc2)CC1)c1ccc(Cl)cc1 )
-73.2

So what's the measured hERG current change (%, negative = inhibition) at 10uM for this one? COc1ccc(C(C)(C)C)cc1NC(=O)c1cc(S(=O)(=O)N(C)C)ccc1N1CCCC1
-60
